# SYSTEM_UNDER_TEST: Fyn (UniProt P06241)
# Sequence (P06241 whole entry, looked up): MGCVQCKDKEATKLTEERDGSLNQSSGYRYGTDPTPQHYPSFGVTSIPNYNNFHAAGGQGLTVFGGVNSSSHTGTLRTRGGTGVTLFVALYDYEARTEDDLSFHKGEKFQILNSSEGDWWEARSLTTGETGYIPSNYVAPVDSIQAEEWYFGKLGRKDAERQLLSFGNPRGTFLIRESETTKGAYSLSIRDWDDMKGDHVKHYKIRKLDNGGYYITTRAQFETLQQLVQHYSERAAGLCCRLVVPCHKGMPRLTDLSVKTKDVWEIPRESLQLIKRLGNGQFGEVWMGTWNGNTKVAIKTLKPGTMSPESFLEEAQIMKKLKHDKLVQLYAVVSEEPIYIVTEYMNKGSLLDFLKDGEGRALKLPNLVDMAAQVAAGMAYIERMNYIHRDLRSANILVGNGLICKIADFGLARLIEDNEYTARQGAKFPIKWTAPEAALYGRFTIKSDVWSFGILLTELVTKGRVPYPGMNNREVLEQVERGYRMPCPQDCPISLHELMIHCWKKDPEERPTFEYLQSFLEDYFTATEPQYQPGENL
# PROCEDURE_DETAILS: phosphorylation enrichment, bacterial display (enrichment ratio); higher = better substrate or ligand; peptides without Tyr show the background;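 also: 11-residue human phosphosite peptides and single-mutation variants displayed on the E. coli surface, counted by deep sequencing, each peptide's frequency after selection divided by its frequency in the unselected input library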;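 also: frequency after pTyr selection over input frequency; kinase dosed for 20-30% of maximal phosphorylation in three min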
QUANTITY_MEASURED: phosphorylation enrichment

response.value for DASAVYLHDFQ [PLCG2_Y242] (field: phosphorylation enrichment) = 0.533

response.value for EEKKKYYDTKI [CASP5_Y103] (field: phosphorylation enrichment) = 0.479

response.value for LIEQAYDNLHE [PRPF8_Y871_P874L] (field: phosphorylation enrichment) = 0.714

response.value for FPLELYERVRI [PRKCG_Y312_M317I_YF] (field: phosphorylation enrichment) = 0.48

response.value for DGTGHYLGNAC [GATA5_Y208_C210G] (field: phosphorylation enrichment) = 0.347

response.value for PVQAAYKKVVA [HBB_Y131_Q132K] (field: phosphorylation enrichment) = 0.506

response.value for LDYNEYVRDLN [HPRT1_Y198_F199V] (field: phosphorylation enrichment) = 0.695

response.value for LRWREYQRQDY [PRKRIP1_Y90_R87W] (field: phosphorylation enrichment) = 0.574

response.value for EPSVPYRGTVF [GLI3_Y104] (field: phosphorylation enrichment) = 0.545

response.value for RNGNRYFKGIV [DCX_Y64_D62N] (field: phosphorylation enrichment) = 0.42

response.value for CTNELYMMMRD [FGFR1_Y730] (field: phosphorylation enrichment) = 0.705

response.value for DYSLKYATDIP [APC_Y1183] (field: phosphorylation enrichment) = 0.582

response.value for AEVIWYKGDEV (field: phosphorylation enrichment) = 0.394

response.value for SDYSRYARTSI [TERT_Y949_S948R] (field: phosphorylation enrichment) = 0.443
